Test system: K12877-001-R-J1-PDC complex spheroid viability
Test: Anticancer human tumor K12877-001-R-J1-PDC patient-derived lung adenocarcinoma cell line growth inhibition [RAS]
Conditions: second compound 0.000949 µM; first compound 0.316 µM; stronger effect = lower value

# Compound, Tested system, Unit descriptor, viability, T/C
measured = [
    ("Cc1nc(N2CCC3(CC2)COC(C)C3N)c(CO)nc1Sc1ccnc(N)c1Cl (centres undefined) + CCn1c(-c2cccnc2C(C)OC)c2c3cc(ccc31)N1CCOC(CC(NC(=O)C(C(C)C)N(C)C(=O)C3(F)CCN(C(=O)C#CC(C)(C)N(C)C)CC3)C(=O)N3CCCC(N3)C(=O)OCC(C)(C)C2)C1", "K12877-001-R-J1-PDC complex spheroid viability", "%", 71.5),
    ("Cc1nc(N2CCC3(CC2)COC(C)C3N)c(CO)nc1Sc1ccnc(N)c1Cl (centres undefined) + CCn1c(-c2cc(N3CCN(C)CC3)cnc2C(C)OC)c2c3cc(ccc31)-c1csc(n1)CC(NC(=O)C1CC1C)C(=O)N1CCCC(N1)C(=O)OCC(C)(C)C2", "K12877-001-R-J1-PDC complex spheroid viability", "%", 71.7),
    ("C=CC(=O)Nc1cc(Nc2nccc(-c3cn(C)c4ccccc34)n2)c(OC)cc1N(C)CCN(C)C + CCn1c(-c2cc(N3CCN(C)CC3)cnc2C(C)OC)c2c3cc(ccc31)-c1csc(n1)CC(NC(=O)C1CC1C)C(=O)N1CCCC(N1)C(=O)OCC(C)(C)C2", "K12877-001-R-J1-PDC complex spheroid viability", "%", 82.4),
    ("Nc1ccn(C2OC(CO)C(O)C2(F)F)c(=O)n1 (centres undefined) + CCn1c(-c2cc(N3CCN(C)CC3)cnc2C(C)OC)c2c3cc(ccc31)-c1csc(n1)CC(NC(=O)C1CC1C)C(=O)N1CCCC(N1)C(=O)OCC(C)(C)C2", "K12877-001-R-J1-PDC complex spheroid viability", "%", 4.92),
]

* * *

System: K12877-001-R-J1-PDC complex spheroid viability
Test: Anticancer human tumor K12877-001-R-J1-PDC cell line growth inhibition [RAS];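 also: spheroids exposed to agents for one week before readout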
Conditions: curve of first compound; second compound 0.0316 µM
pIC50: −log10 of the molar value.
Documented pIC50 across a set of compounds
Attribute measured: pIC50

# Compound, Qualifier sign, Measured number
rows = [
    ("NC1c2ccccc2OC12CCN(c1cnc3c(N4CCCc5ncccc54)n[nH]c3n1)CC2 (stereo not given) + C#Cc1c(F)ccc2cc(O)cc(-c3ncc4c(N5CC6CCC(C5)N6)nc(OCC56CCCN5CC(F)C6)nc4c3F)c12", "<", 5.00),
    ("CC(C)n1nc(-c2ccc3oc(N)nc3c2)c2c(N)ncnc21 + C=CC(=O)N1CCN(c2nc(OCC3CCCN3C)nc3c(F)c(-c4nc(N)cc(C)c4C(F)(F)F)c(Cl)cc23)C(C)C1", "=", 7.76),
    ("CC(Nc1ccc2c(c1)OCCn1cc(N3C(=O)OCC3C(F)F)nc1-2)C(N)=O (stereo not given) + C#Cc1c(F)ccc2cc(O)cc(-c3ncc4c(N5CC6CCC(C5)N6)nc(OCC56CCCN5CC(F)C6)nc4c3F)c12", "=", 5.31),
    ("Nc1ccn(C2OC(CO)C(O)C2(F)F)c(=O)n1 (stereo not given) + C#Cc1c(F)ccc2cc(O)cc(-c3ncc4c(N5CC6CCC(C5)N6)nc(OCC56CCCN5CC(F)C6)nc4c3F)c12", "=", 7.73),
    ("CC(=O)OC12COC1CC(O)C1(C)C(=O)C(O)C3=C(C)C(OC(=O)C(O)C(NC(=O)OC(C)(C)C)c4ccccc4)CC(O)(C(OC(=O)c4ccccc4)C21)C3(C)C (stereo not given) + C=CC(=O)N1CCN(c2nc(OCC3CCCN3C)nc3c(F)c(-c4nc(N)cc(C)c4C(F)(F)F)c(Cl)cc23)C(C)C1", ">", 7.50),
]
